The reader will find reported growth inhibition values listed item by item below.
# experiment description: NCI Yeast Anticancer Drug Screen. Data for the cln2 rad14 strain (AID 165);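 further: 0% = growth equal to vehicle treated cultures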
# condition notes: S. cerevisiae cln2 rad14 strain, at 50.0 µM, hits give high values
The panel holds about 79,000 compounds, 15% with a hit somewhere; the sample as a whole holds those more often.
Output spec: scalar in %, unitless text.

Take a look at these entries with their results.
>>> quantitative_readout("CC(=O)NC(C(=O)NC(CSCc1ccccc1)C(=O)O)=C(C)C (stereo not given)")
3.1
>>> quantitative_readout("CCOC(=O)CSc1[nH]c(NC(=S)Nc2ccccc2)c(C(N)=O)c1C(N)=O")
-1.2
>>> quantitative_readout("CC1(C)CC(Nc2ccc(Nc3ccccc3)cc2)CC(C)(C)N1")
-9.8

Consider the compound shown here: CC(=O)Nc1ccc(/C=N\N=C\c2ccc(NC(C)=O)cc2)cc1 What is its recorded growth inhibition?
-4.6

Consider the compound shown here: NC(N)=NS(=O)(=O)c1ccc(N=Cc2c3ccccc3nc3ccccc23)cc1 What is its recorded growth inhibition?
98.8

====

The reader will find reported growth inhibition values listed item by item below.
# experiment description: NCI Yeast Anticancer Drug Screen. Data for the rad50 strain (AID 155);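 further: 0% = growth of vehicle-only cultures of the same strain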
# condition notes: S. cerevisiae rad50 strain growth inhibition; at 50.0 µM; hits give high values
Compounds without any hit were thinned out: in the full panel of roughly 79,000, 15% have a hit.
Output spec: scalar in %, unitless text.

Take a look at these entries with their results.
>>> quantitative_readout("O=C(Nc1ccc(Br)cc1)c1ccccc1")
14.4
>>> quantitative_readout("CCc1ccc[n+](CCc2c[nH]c3ccccc23)c1")
-13
>>> quantitative_readout("CCN1OCC(C)(C(=O)OC)C1C (centres undefined)")
-13.9
>>> quantitative_readout("CCCCCCC(/C=C/c1ccc(Cl)c(Cl)c1)=N\\Nc1ccccc1")
3.55
>>> quantitative_readout("O=C(Cn1ccccc1=O)c1ccc(F)cc1")
9.65
>>> quantitative_readout("Cc1cc2c(C)nn(Cc3ccc(Cl)cc3Cl)c2c(C#N)c1C")
18.2
>>> quantitative_readout("Cc1ccc(-n2cnc(C(=N)C#N)c2N)cc1")
-15.6
>>> quantitative_readout("C#CCNC(=O)NCCCl")
18.9

Consider the molecule shown here: CCCCOC(=O)C1CC2OC2CC1C(=O)OCCOCCOC(=O)C1CC2OC2CC1C(=O)OCCCC (centres undefined) What is its recorded growth inhibition?
-18.3

Consider the molecule shown here: Cc1ccc(S(=O)(=O)N2CC(O)C=Cc3ccccc32)cc1 (centres undefined) What is its recorded growth inhibition?
5.4

Consider the molecule shown here: CC1(C)CC(O)(Cc2ccccc2)C(O)c2ccccc21 (centres undefined) What is its recorded growth inhibition?
45.5

Consider the molecule shown here: C=COCCC(C(=O)OCC)C(=O)OCC What is its recorded growth inhibition?
13.5

====

# experiment description: NCI Yeast Anticancer Drug Screen. Data for the bub3 strain (AID 167)
# condition notes: S. cerevisiae bub3 mutant strain, at 50.0 µM, hits give high values
About 79,000 compounds went through this panel and 15% of them were active in at least one assay; those are over-represented in the sample as a whole.
The reader will find reported growth inhibition values listed item by item below.
Output spec: scalar in %, unitless text.

Take a look at these entries with their results.
>>> quantitative_readout("O=c1oc2ccc(Br)cc2cc1-n1nnc2ccccc21")
15.9
>>> quantitative_readout("Cc1cc(C)c(NS(=O)c2cccc(C(F)(F)F)c2)c(C)c1 (stereo unspecified)")
-31.4

Consider the compound shown here: CCOC(=O)C(NC(=O)NC(C(=O)OCC)C(=O)OCC)C(=O)OCC What is its recorded growth inhibition?
-7.7

====

The reader will find reported growth inhibition values listed item by item below.
# experiment description: NCI Yeast Anticancer Drug Screen. Data for the mec2-1 strain (AID 157)
# condition notes: S. cerevisiae mec2-1 strain, at 50.0 µM, hits give high values
The panel holds about 79,000 compounds, 15% with a hit somewhere; the sample as a whole holds those more often.
Output spec: scalar in %, unitless text.

Take a look at these entries with their results.
>>> quantitative_readout("Clc1ccc(C(=C=C(c2ccccc2)c2ccccc2)c2ccc(Cl)cc2)cc1")
13.8
>>> quantitative_readout("O=Cc1cc(C(=O)c2ccccn2)c2cc(Cl)cc(Cl)c2n1")
5.9
>>> quantitative_readout("CCOC(=O)c1ccc(OCC)cc1O")
-8
>>> quantitative_readout("COc1cc2[nH]c3c(c2cc1OC)CCN[C@]31CC[C@]2(CC3c4c(cc(OC)c(O)c42)CCN3C)C[C@H]1OC (some centres undefined)")
-6
>>> quantitative_readout("Cc1cc(C)cc(C(=O)OC2CCCC2)c1")
0.35
>>> quantitative_readout("O=C(/C=C/c1ccc(OCC(=O)N2CCN(c3ccccc3)CC2)cc1)c1ccc(Cl)cc1")
13.9
>>> quantitative_readout("O=C(NC(Cc1cnc[nH]1)C(=O)N1CCCC1)C1CCCC1 (centres undefined)")
-20.4
>>> quantitative_readout("Cc1cc(S(=O)(=O)Nc2n[nH]c(Nc3ccccc3)n2)c(SSc2cc(Cl)c(C)cc2S(=O)(=O)Nc2n[nH]c(Nc3ccccc3)n2)cc1Cl")
37.8
>>> quantitative_readout("O=[N+]([O-])c1ccc(OC(=S)N2CCOCC2)cc1")
9.3
>>> quantitative_readout("CCOC(CN(N=O)c1ccccc1C(C)C)OCC")
8.9

Here is the next item to consider.
Consider the compound shown here: CCOc1ccc(/C=C2\N=C(c3ccccc3)OC2=O)cc1OC What is its recorded growth inhibition?
12.5

====

# experiment description: NCI Yeast Anticancer Drug Screen. Data for the rad50 strain (AID 155);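 further: 0% = growth of vehicle-only cultures of the same strain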
# condition notes: S. cerevisiae rad50 strain growth inhibition; at 50.0 µM; hits give high values
Compounds without any hit were thinned out: in the full panel of roughly 79,000, 15% have a hit.
test readout: growth inhibition (%)
Output spec: scalar in %, unitless text.

Take a look at these entries with their results.
>>> quantitative_readout("C#C/C=C/CC1OC(C(Br)CC)CC(Br)C2CC1O2 (configuration not stated)")
20.6
>>> quantitative_readout("CC(=O)Nc1ccc(/C=N/NC(=O)COCC(=O)N/N=C/c2ccc(NC(C)=O)cc2)cc1")
7.8
>>> quantitative_readout("O=C(Nc1ccccn1)c1ccc([N+](=O)[O-])cc1")
33
>>> quantitative_readout("C/C=C/C(=O)OCCC#N")
-27.1
>>> quantitative_readout("N#C/C(=N\\NC(=O)c1cccs1)c1ccccc1Cl")
-5.65

Here is the next item to consider.
Consider the compound shown here: Nc1c(Cl)cc2c(c1Br)Cc1cc(F)ccc1-2 What is its recorded growth inhibition?
-0.15

====

The reader will find reported growth inhibition values listed item by item below.
# experiment description: NCI Yeast Anticancer Drug Screen. Data for the bub3 strain (AID 167)
# condition notes: S. cerevisiae bub3 mutant strain, at 50.0 µM, hits give high values
Compounds without any hit were thinned out: in the full panel of roughly 79,000, 15% have a hit.
Output spec: scalar in %, unitless text.

>>> quantitative_readout("NC(=O)c1nnn2c1nc(N)c1cc(Cl)ccc12")
-27.6
>>> quantitative_readout("CC1(C)OC[C@@H](O)[C@H](C#N)CO1")
-0.95

Consider the compound shown here: Cc1ccccc1S(=O)(=O)OC1NS(=O)(=O)c2ccccc21 (configuration not stated) What is its recorded growth inhibition?
-23.3

Consider the compound shown here: CC(C)(C)SC(=S)SCC(=O)c1cc2cc(Br)ccc2o1 What is its recorded growth inhibition?
-16.9

Consider the compound shown here: CN(C)CCOC(=O)C(C)(C)Sc1ccc(Cl)cc1 What is its recorded growth inhibition?
0.4

Consider the compound shown here: CCOc1ccc(NC(=O)CCc2nnc(SC)o2)cc1 What is its recorded growth inhibition?
29.1

Consider the compound shown here: CCOC(OCC)c1ccc(O)cc1 What is its recorded growth inhibition?
-2.2

====

# experiment description: NCI Yeast Anticancer Drug Screen. Data for the rad50 strain (AID 155);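 further: 0% = growth of vehicle-only cultures of the same strain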
# condition notes: S. cerevisiae rad50 strain growth inhibition; at 50.0 µM; hits give high values
Compounds without any hit were thinned out: in the full panel of roughly 79,000, 15% have a hit.
test readout: growth inhibition (%)
Output spec: scalar in %, unitless text.

>>> quantitative_readout("CC(C)CC1NC(=O)CCC(NC(=O)C(Cc2ccc(O)cc2)NC(=O)OCc2ccccc2)C(=O)NC(Cc2ccccc2)C(=O)NC(Cc2ccccc2)NC1=O (stereo not drawn)")
-24.9

Consider the compound shown here: CCCCC1SC2=NCCN2C1(O)c1ccc(Cl)cc1 (stereo not drawn) What is its recorded growth inhibition?
14.6

Consider the compound shown here: CC(=O)OC1CCC23COC(CC(C)C2C)C3(Cl)C1 (stereo not drawn) What is its recorded growth inhibition?
-0.7

Consider the compound shown here: O=C1C(c2ccccc2)=C(c2ccccc2)c2ccc(Cl)cc21 What is its recorded growth inhibition?
13.7

Consider the compound shown here: CCCNC(=O)CCC(=O)NS(=O)(=O)c1ccc(Cl)cc1 What is its recorded growth inhibition?
-14.4

Consider the compound shown here: CC(=O)Nc1nc(NC(C)=O)c2[nH]c(CO)nc2n1 What is its recorded growth inhibition?
-4.2

Consider the compound shown here: O=C(O)CC1SC2(C(=O)N(Cc3ccccc3)c3ccccc32)N(c2ccccc2)C1=O (stereo not drawn) What is its recorded growth inhibition?
45.4

Consider the compound shown here: CC(SCc1ccccc1)C(NC(=O)c1ccccc1)C(=O)O (stereo not drawn) What is its recorded growth inhibition?
4.95

Consider the compound shown here: Cc1cc(C(N)=O)c(C(N)=O)c(Cl)n1 What is its recorded growth inhibition?
2.35

Consider the compound shown here: CCN(CC)CCN(CC)CCN(CC)CC What is its recorded growth inhibition?
6.7

Consider the compound shown here: CC1=Nc2c(ccc3c2C(=O)c2ccccc2C3=O)NC(c2ccncc2)C1 (stereo not drawn) What is its recorded growth inhibition?
31.1

Consider the compound shown here: CC1=CC(=C2C=CC(=O)C=C2)C=C(C)N1C What is its recorded growth inhibition?
5.6

Consider the compound shown here: CC(=O)NCCC(=O)NCCSC(C)=O What is its recorded growth inhibition?
-15

Consider the compound shown here: Nc1ncnc2c1ncn2CCOCC(O)CO (stereo not drawn) What is its recorded growth inhibition?
-0.75

Consider the compound shown here: COC(=O)C1C(C(=O)OC)C2(C)C(=O)C1(C)C(c1ccccc1)=C2c1ccccc1 (stereo not drawn) What is its recorded growth inhibition?
-0.7

Consider the compound shown here: Cc1ccc(S(=O)(=O)N/N=C/c2cc(I)cc(I)c2O)cc1 What is its recorded growth inhibition?
99.5

Consider the compound shown here: C=CC(=O)NC1CCCCC1 What is its recorded growth inhibition?
-8.9

Consider the compound shown here: N[C@H]1c2c(Cl)cccc2C(=O)[C@H]1O What is its recorded growth inhibition?
-3.7

Consider the compound shown here: CS(=O)CC(Nc1ccccc1)c1ccccc1 (stereo not drawn) What is its recorded growth inhibition?
-3.75

Consider the compound shown here: CCCCCCCCCCOc1ccc(C2=C(c3ccccc3)C(=O)C(c3ccccc3)=C2c2ccccc2)cc1 What is its recorded growth inhibition?
25.3

Consider the compound shown here: O=C(Nc1cc(C(=O)Nc2cccc(S(=O)(=O)O)c2)cc(C(=O)Nc2cccc(S(=O)(=O)O)c2)c1)c1cccc(C(=O)Nc2cc(C(=O)Nc3cccc(S(=O)(=O)O)c3)cc(C(=O)Nc3cccc(S(=O)(=O)O)c3)c2)c1 What is its recorded growth inhibition?
-0.1

Consider the compound shown here: COc1cc2c3c(c1)[nH]c(=S)n3C(=O)CS2 What is its recorded growth inhibition?
-18.9

Consider the compound shown here: CC12C=CC(=O)C=C1CCC1C2C(O)CC2(C)/C(=C\CO)CCC12 (stereo not drawn) What is its recorded growth inhibition?
-4.05

Data provenance is PubChem BioAssay (NCI).
